assayMethodText: in vivo
Parameters: species or system SD rats
conditionDescription: male, SD, rat, po, 3 mg/kg
# Cmax per record follows
A bare number is not enough; add the unit after it.

### Prompt Quick one: Cmax of CCOc1cncc(-c2ccc(NC(=O)C3(c4ccnc(NS(=O)(=O)C5CC5)n4)CCC(=CF)CC3)nc2)n1 (centres unmarked) [Compound 10] ?
### Response 9330 ng/mL

### Prompt Quick one: Cmax of CCOc1cncc(-c2ccc(NC(=O)C3(c4ccnc(NS(=O)(=O)C5CC5)n4)CCC(=CC4CCOCC4)CC3)nc2)n1 (centres unmarked) [Compound 32] ?
### Response 4020 ng/mL

### Prompt Quick one: Cmax of CCOc1cncc(-c2ccc(NC(=O)C3(c4ccnc(NS(=O)(=O)C5CC5)n4)CCC(=CCC(C)(C)O)CC3)nc2)n1 (centres unmarked) [Compound 58] ?
### Response 4540 ng/mL

### Prompt Quick one: Cmax of CCOc1cncc(-c2ccc(NC(=O)C3(c4ccnc(NS(=O)(=O)C5CC5)n4)CCC(=CCO)CC3)nc2)n1 (centres unmarked) [Compound 5] ?
### Response 359 ng/mL

### Prompt Quick one: Cmax of CCOc1cncc(-c2ccc(NC(=O)C3(c4ccnc(NS(=O)(=O)C5CC5)n4)CCC(=C(F)F)CC3)nc2)n1 (centres unmarked) [Compound 1] ?
### Response 11300 ng/mL

### Prompt Quick one: Cmax of CCOc1cncc(-c2ccc(NC(=O)C3(c4ccnc(NS(=O)(=O)C5CC5)n4)CCC(=CCC4COC4)CC3)nc2)n1 (centres unmarked) [Compound 63] ?
### Response 4820 ng/mL

### Prompt Quick one: Cmax of CCOc1cncc(-c2ccc(NC(=O)C3(c4ccnc(NS(=O)(=O)C5CC5)n4)CCC(=CCN4CC(OC)C4)CC3)nc2)n1 (centres unmarked) [Compound 28] ?
### Response 33.1 ng/mL

### Prompt Quick one: Cmax of CCOc1cncc(-c2ccc(NC(=O)C3(c4ccnc(NS(=O)(=O)C5CC5)n4)CCC(=CCNC(C)=O)CC3)nc2)n1 (centres unmarked) [Compound 22] ?
### Response 177 ng/mL

### Prompt Quick one: Cmax of CCOc1cncc(-c2ccc(NC(=O)C3(c4ccnc(NS(=O)(=O)C5CC5)n4)CCC(=CC4COC4)CC3)nc2)n1 (centres unmarked) [Compound 36] ?
### Response 3770 ng/mL

### Prompt Quick one: Cmax of C=CC(=O)N1CCC(C(=O)Nc2ccc(-c3cncc(OCC)n3)cn2)(c2ccnc(NS(=O)(=O)C3CC3)n2)CC1 [Compound 26] ?
### Response 118 ng/mL

### Prompt Quick one: Cmax of CCOc1cncc(-c2ccc(NC(=O)C3(c4cncc(NS(=O)(=O)C5CC5)n4)CCC(=C(F)F)CC3)nc2)n1 (centres unmarked) [Compound 68] ?
### Response 6810 ng/mL
